tested on: M14 melanoma; assay: NCI tumour cell line growth inhibition, 48 h
// reported TGI per item
Give your result in µM as a bare value.

Known TGI results, listed for orientation:
>  <molecule>
CN(C)CCC(=O)N1C/C(=C/c2ccccc2)C(=O)/C(=C\c2ccccc2)C1

>  <TGI, µM>
6.53

$$$$
>  <molecule>
Nc1cc(CO)cc(Nc2nc3ccc(Cl)cc3c3[nH]c4ccccc4c23)c1

>  <TGI, µM>
16.7

$$$$
>  <molecule>
O=C(NNC(=S)Nc1ccc(Cl)cc1)c1cc(-c2ccccc2)nc2ccccc12

>  <TGI, µM>
18.7

$$$$

input: Annotate the molecule C=C1CC(COc2cc(=O)oc3ccccc23)(c2ccccc2)OC1=O (stereo not given) with its measured TGI.
output: 3.3

input: Give the reported value of TGI for this record: CC1OC(O[C@H]2C[C@@H](O)[C@]3(CO)[C@H]4[C@H](O)C[C@]5(C)[C@@H](C6=CC(=O)OC6)CC[C@]5(O)[C@@H]4CC[C@]3(O)C2)C(O)C(O)C1O (stereo not given in full)
output: 87.5

input: Entry `CC[CH2][Pb]([CH2]CC)([CH2]CC)[O]C(=O)C(F)(F)F` needs its TGI filled in; supply it.
output: 0.33

input: Specify measured TGI for COc1ccc(C(C#N)NNC(=O)c2ccccc2O)cc1OC (stereo not given) .
output: 46.7

input: Please report TGI for the following molecule: CC(CN1c2ccccc2Sc2ccccc21)N(C)C (stereo not given)
output: 33.9

###

system: DMS 114 small cell lung; assay: NCI tumour cell line growth inhibition, 48 h
This listing pairs compounds with measured TGI.

Sample answers from the record:
>  <compound>
O=c1[nH]n2c(=O)cc[nH]c2c1-c1nnns1

>  <TGI>
> 100 µM

$$$$
>  <compound>
COC(=O)CC(=O)C[P+](c1ccccc1)(c1ccccc1)c1ccccc1

>  <TGI>
> 218 µM

$$$$
>  <compound>
O=C(N/N=C/c1ccccc1O)c1cccc([N+](=O)[O-])c1

>  <TGI>
39.3 µM

$$$$
>  <compound>
CCCCCCCCCC[C@@H](O)[C@@H]1CC[C@H]([C@H]2CC[C@@H]([C@@H](O)CCCCCCCCCC[C@H]3CC(CC(C)=O)C(=O)O3)O2)O1 (some centres not stated)

>  <TGI>
19 µM

$$$$

input: Report measured TGI on DMS 114 small cell lung; entry: C/C(CCOC1CCCCO1)=C(\C)[Si](C)(C)C (configuration not stated)
output: > 100 µM

input: Provide TGI, tested on DMS 114 small cell lung, for `C=C(C(=O)C(=O)Oc1ccc(Cl)cc1)C(=O)c1ccc(C)cc1` .
output: > 100 µM

input: For DMS 114 small cell lung, give TGI of the listed compound: COc1ccc(C2Oc3c(cc(O)c(OC)c3C)[C@@H]2C)cc1OC (some centres not stated)
output: > 100 µM

input: Look up and report measured TGI (DMS 114 small cell lung) for the following compound: `COCCOCOc1ccc(OCc2ccccc2)cc1`
output: > 100 µM

input: Specify TGI for N#CC1(Cc2ccc(N)cc2)c2ccccc2C=CN1C(=O)c1ccccc1 (configuration not stated) , system DMS 114 small cell lung.
output: > 100 µM

input: Give TGI only, for O=C1C=CC(=Nc2ccc3c(c2)C(Br)c2ccccc2-3)O1 (configuration not stated) , using DMS 114 small cell lung data.
output: > 100 µM

input: Report TGI on DMS 114 small cell lung for this entry: COc1ccc(C(C#N)NNC(=O)c2ccccc2O)cc1OC (configuration not stated)
output: 12.7 µM

input: Report TGI from DMS 114 small cell lung testing of `O=C1C(Cl)=C(N2CCN(C3=C(Cl)C(=O)c4ccccc4C3=O)CC2)C(=O)c2ccccc21`
output: 2.64 µM

input: Please respond with reported TGI (system DMS 114 small cell lung) for CN(C(=O)C12C3C4C1C1C2C3C41C(=O)C(C)(C)C)C(C)(C)C (configuration not stated) .
output: > 100 µM

input: Quote DMS 114 small cell lung TGI for entry COC(=O)C(=O)C(C(=O)C=C(C)C)C(=O)C(=O)Nc1cc(C(F)(F)F)ccc1Cl (configuration not stated) .
output: > 100 µM

input: Report TGI under test system DMS 114 small cell lung for CCCCN(CCCC)C(=O)C(=O)C(C#N)c1ccc(C)cc1 (configuration not stated) .
output: > 100 µM

input: Tell me its TGI on DMS 114 small cell lung: `CN(C)CCC(=O)N1C/C(=C/c2ccccc2)C(=O)/C(=C\c2ccccc2)C1`
output: 4.1 µM

input: State recorded TGI with DMS 114 small cell lung, entry OCCC1(O)CCC(O)CC1 (configuration not stated) , no comment.
output: > 100 µM

Data credit: PubChem BioAssay (NCI)
